target: HIV-1 Env of pseudovirus SC422661.8 (HIV-1); experiment: cell-based or functional assay
outcome_measure: neutralization IC50 (µg/mL)

binder="MS-89 (antibody, V domains shown) VH: QVQLVQSGPEVRKPGTSVKVSCKAPGYTLKTYDLHWVRSVPGQGLQWMGWISHEGDKKVIVERFKAKVTITWDRSTNTAYLQLSGLTSGDTAVYYCAKGSKHRLRDYALYDDDGALNWAVDVDYLSNLEFWGQGTAVTVSS VL: DFVLTQSPLSLSVTPGESASISCKSSHSLIHGDRNNYLAWYVQKPGRSPQLLIYLASSRASGVPDRFSGSGSDKDFTLKISRVETEDVGTYYCMQGRESPWTFGQGTKVDIKR" readout_value=0.786
binder="MS-77 (antibody, V domains shown) VH: QVQLVQSGPEVRKPGTSVKVSCKAPGNTFKTYDLHWVRSVPGQGLQWMGWISHEGDKKVIVERFKAKVTIDWDRSTNTAYLQLSGLTSGDTAVYYCAKGSKHRLRDYALYDDDGALNWAVDVDYLSNLEFWGQGTAVTVSS VL: DFVLTQSPHSLSVTPGESASISCKSSHSLIHGDRNNYLAWYVQKPGRSPQLLIYLASSRASGVPDRFSGSGSDKDFTLKISRVETEDVGTYYCMQGRESPWTFGQGTKVDIKR" readout_value=0.373
binder="MS-75 (antibody, V domains shown) VH: QVQLVQSGPEVRKPGTSVKVSCKASGNTLKTYDLHWVRSVPGQGLQWMGWISHEGDKKVIVERFKAKVTIDWDRSTNTAYLQLSGLTSGDTAVYYCAKGSKHRLRDYALYDDDGALNWAVDVDYLSNLEFWGQGTAVTVSS VL: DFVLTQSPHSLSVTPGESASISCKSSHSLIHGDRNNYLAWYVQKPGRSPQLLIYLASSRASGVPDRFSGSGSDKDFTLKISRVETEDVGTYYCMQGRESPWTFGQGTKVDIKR" readout_value=0.489
binder="MS-84 (antibody, V domains shown) VH: QVQLVQSGPEVRKPGTSVKVSCKAPGNTLKTYDLHWVRSVPGQGLQWMGWISHEGDKKVIVERFKAKVTIDWDRSTNTAYLQLSGLRSGDTAVYYCAKGSKHRLRDYALYDDDGALNWAVDVDYLSNLEFWGQGTAVTVSS VL: DFVLTQSPLSLPVTPGEPASISCKSSHSLIHGDRNNYLAWYVQKPGQSPQLLIYLASSRASGVPDRFSGSGSDKDFTLKISRVEAEDVGVYYCMQGRESPWTFGQGTKVDIKR" readout_value=0.192

The measured values listed here are drawn from patent US20220025021A1.
